Assay: Drug interaction pharmacokinetic study of LES and ETC, single oral dose, plasma levels by HPLC-DAD
Assay type: in vivo, Sprague-Dawley rats
Conditions: male, Sprague-Dawley, plasma; ETC 5 mg/Kg single oral dose alone (Day 0), rat, Mean ± SEM; read-out: Ke (converted)
test_readout: k el (s⁻¹)
Just the number please, in s⁻¹, no unit attached.

For the compound Cc1ccc(-c2ncc(Cl)cc2-c2ccc(S(C)(=O)=O)cc2)cn1 [ETC, etoricoxib] , report k el.
4.17e-05

###

Catalogue of compounds with associated recovery at 25000 ng/ml
Experiment: Stability of the studied drugs in rat plasma (freeze-thaw, bench-top, long-term), HPLC-DAD
Format: in vitro ADME
Details: rat plasma, 25,000 ng/ml, three cycles -20 °C / room temperature, n = 3
Just the number please, in %, no unit attached.

Recorded results for 2 compounds are shown here.
>  <mol>
Cc1ccc(-c2ncc(Cl)cc2-c2ccc(S(C)(=O)=O)cc2)cn1

>  <recovery at 25000 ng/ml [%]>
96.5

$$$$
>  <mol>
O=C(O)CSc1nnc(Br)n1-c1ccc(C2CC2)c2ccccc12

>  <recovery at 25000 ng/ml [%]>
92.7

$$$$

Would you kindly look at the next entry?
For the compound "COC(=O)[C@@H]1CC2=CC(=O)CC[C@]2(C)[C@@]23O[C@@H]2C[C@@]2(C)[C@@H](CC[C@@]24CCC(=O)O4)[C@H]13" , report recovery at 25000 ng/ml.
103

###

Assay: Stock solution stability (methanol), HPLC-DAD
Type: physicochemical
Conditions: stock solution in methanol; 1000 ng/ml, 30 days at 4 °C, n = 3
Catalogue of compounds with associated recovery at 30 days, 1000 ng/ml
Just the number please, in %, no unit attached.

Recorded results for 2 compounds are shown here.
>  <compound>
O=C(O)CSc1nnc(Br)n1-c1ccc(C2CC2)c2ccccc12 [LES, lesinurad]

>  <test_readout>
recovery at 30 days, 1000 ng/ml

>  <recorded_measurement>
98.7

$$$$
>  <compound>
Cc1ccc(-c2ncc(Cl)cc2-c2ccc(S(C)(=O)=O)cc2)cn1 [ETC, etoricoxib]

>  <test_readout>
recovery at 30 days, 1000 ng/ml

>  <recorded_measurement>
98.3

$$$$

Would you kindly look at the next entry?
For the compound COC(=O)[C@@H]1CC2=CC(=O)CC[C@]2(C)[C@@]23O[C@@H]2C[C@@]2(C)[C@@H](CC[C@@]24CCC(=O)O4)[C@H]13 [EPL, eplerenone] , report recovery at 30 days, 1000 ng/ml.
102

###

Assay: Stock solution stability (methanol), HPLC-DAD
Type: physicochemical
Conditions: stock solution in methanol; 25,000 ng/ml, 30 days at 4 °C, n = 3
Catalogue of compounds with associated recovery at 30 days, 25000 ng/ml
Just the number please, in %, no unit attached.

Recorded results for 2 compounds are shown here.
>  <mol>
Cc1ccc(-c2ncc(Cl)cc2-c2ccc(S(C)(=O)=O)cc2)cn1

>  <test_readout>
recovery at 30 days, 25000 ng/ml

>  <recorded_measurement>
99.2

$$$$
>  <mol>
O=C(O)CSc1nnc(Br)n1-c1ccc(C2CC2)c2ccccc12

>  <test_readout>
recovery at 30 days, 25000 ng/ml

>  <recorded_measurement>
99.2

$$$$

Would you kindly look at the next entry?
For the compound "COC(=O)[C@@H]1CC2=CC(=O)CC[C@]2(C)[C@@]23O[C@@H]2C[C@@]2(C)[C@@H](CC[C@@]24CCC(=O)O4)[C@H]13" , report recovery at 30 days, 25000 ng/ml.
98.9

###

Experiment: Drug interaction pharmacokinetic study of LES and ETC, single oral dose, plasma levels by HPLC-DAD
Assay type: in vivo, Sprague-Dawley rats
Details: male, Sprague-Dawley, plasma; ETC 5 mg/Kg single oral dose alone (Day 0), rat; read-out: Tmax
test_readout: Tmax (h)
Just the number please, in h, no unit attached.

For the compound Cc1ccc(-c2ncc(Cl)cc2-c2ccc(S(C)(=O)=O)cc2)cn1 [ETC, etoricoxib] , report Tmax.
1

###

Catalogue of compounds with associated recovery at 35 days, 25000 ng/ml
Assay: Stability of the studied drugs in rat plasma (freeze-thaw, bench-top, long-term), HPLC-DAD
Type: in vitro ADME
Details: rat plasma, 25,000 ng/ml, 35 days at -20 °C, n = 3

Recorded results for 2 compounds are shown here.
>  <mol>
O=C(O)CSc1nnc(Br)n1-c1ccc(C2CC2)c2ccccc12

>  <recovery at 35 days, 25000 ng/ml>
94.6%

$$$$
>  <mol>
Cc1ccc(-c2ncc(Cl)cc2-c2ccc(S(C)(=O)=O)cc2)cn1

>  <recovery at 35 days, 25000 ng/ml>
90.4%

$$$$

For the compound "COC(=O)[C@@H]1CC2=CC(=O)CC[C@]2(C)[C@@]23O[C@@H]2C[C@@]2(C)[C@@H](CC[C@@]24CCC(=O)O4)[C@H]13" , report recovery at 35 days, 25000 ng/ml.
92.6%

###

Assay: Stock solution stability (methanol), HPLC-DAD
Assay type: physicochemical
Settings: stock solution in methanol; 10,000 ng/ml, 6 h at room temperature, n = 3; read-out: Stock solution stability (room temp.) Recovery%
test_readout: recovery at 6 h, 10000 ng/ml (%)
Just the number please, in %, no unit attached.

For the compound "COC(=O)[C@@H]1CC2=CC(=O)CC[C@]2(C)[C@@]23O[C@@H]2C[C@@]2(C)[C@@H](CC[C@@]24CCC(=O)O4)[C@H]13" , report recovery at 6 h, 10000 ng/ml.
102

For the compound "Cc1ccc(-c2ncc(Cl)cc2-c2ccc(S(C)(=O)=O)cc2)cn1" , report recovery at 6 h, 10000 ng/ml.
99.5

For the compound "O=C(O)CSc1nnc(Br)n1-c1ccc(C2CC2)c2ccccc12" , report recovery at 6 h, 10000 ng/ml.
96.5
